tested on: SK-MEL-28; test: NCI 60 cell line panel (SRB), SK-MEL-28; type: cell-based; conditions: Homo sapiens; SK-MEL-28, Melanoma; single dose of 10 μM; read-out: Cell Growth Percent
Reported activity at 10 µM values for the following compounds.
Give your result in % as a bare value.

These recorded examples may help you get a feel for the data.
Compound | Display unit | activity at 10 µM
CCOC(=O)c1c(C)oc2ncnc(Nc3ccc(C(=O)NCCc4ccccc4)cc3)c12 [Compound 14e] | % | 87.8
CCOC(=O)c1c(C)oc2ncnc(Nc3ccc(C(=O)Nc4cccc(Cl)c4)cc3)c12 [Compound 14a] | % | 105
CCOC(=O)c1c(C)oc2ncnc(Nc3ccc(NC(=O)Nc4ccc(CC)cc4)cc3)c12 [Compound 15i] | % | 105

Query compound follows.
Form field, activity at 10 µM with SK-MEL-28, item COc1cccc(NC(=O)Nc2ccc(Oc3ncnc4sc5c(c34)CCCC5)cc2)c1 [Compound 21c] : 83.7
